Details: in ethyl acetate, 313.15 K
MEASURED_PARAMETER: solubility (mole fraction)
Lab note: jot down the number only; don't add units.

So what's the measured solubility (mole fraction) for this one? COc1cc(Cl)nc(N)n1
0.0276

###

Details: in isopropanol, 283.15 K
MEASURED_PARAMETER: solubility (mole fraction)
Lab note: jot down the number only; don't add units.

So what's the measured solubility (mole fraction) for this one? COc1cc(Cl)nc(N)n1
0.0019

###

Details: in DMF, 308.15 K
MEASURED_PARAMETER: solubility (mole fraction)
Lab note: jot down the number only; don't add units.

So what's the measured solubility (mole fraction) for this one? COc1cc(Cl)nc(N)n1
0.0926

###

Details: in ethyl acetate, 323.15 K
MEASURED_PARAMETER: solubility (mole fraction)
Lab note: jot down the number only; don't add units.

So what's the measured solubility (mole fraction) for this one? COc1cc(Cl)nc(N)n1
0.0389

###

Conditions: in n-propanol, 298.15 K
MEASURED_PARAMETER: solubility (mole fraction)

So what's the measured solubility (mole fraction) for this one? COc1cc(Cl)nc(N)n1
0.00407

###

Settings: in n-propanol, 278.15 K
MEASURED_PARAMETER: solubility (mole fraction)
Lab note: jot down the number only; don't add units.

So what's the measured solubility (mole fraction) for this one? COc1cc(Cl)nc(N)n1
0.00158

###

Settings: in isopropanol, 293.15 K
MEASURED_PARAMETER: solubility (mole fraction)
Lab note: jot down the number only; don't add units.

So what's the measured solubility (mole fraction) for this one? COc1cc(Cl)nc(N)n1
0.00302

###

Details: in chloroform, 308.15 K
MEASURED_PARAMETER: solubility (mole fraction)
Lab note: jot down the number only; don't add units.

So what's the measured solubility (mole fraction) for this one? COc1cc(Cl)nc(N)n1
0.0114

###

Settings: in toluene, 278.15 K
MEASURED_PARAMETER: solubility (mole fraction)
Lab note: jot down the number only; don't add units.

So what's the measured solubility (mole fraction) for this one? COc1cc(Cl)nc(N)n1
0.000889

###

Details: in acetone, 323.15 K
MEASURED_PARAMETER: solubility (mole fraction)

So what's the measured solubility (mole fraction) for this one? COc1cc(Cl)nc(N)n1
0.0492

###

Conditions: in isopropanol, 323.15 K
MEASURED_PARAMETER: solubility (mole fraction)

So what's the measured solubility (mole fraction) for this one? COc1cc(Cl)nc(N)n1
0.0105

###

Settings: in ethanol, 283.15 K
MEASURED_PARAMETER: solubility (mole fraction)
Lab note: jot down the number only; don't add units.

So what's the measured solubility (mole fraction) for this one? COc1cc(Cl)nc(N)n1
0.00206

###

Conditions: in acetone, 288.15 K
MEASURED_PARAMETER: solubility (mole fraction)
Lab note: jot down the number only; don't add units.

So what's the measured solubility (mole fraction) for this one? COc1cc(Cl)nc(N)n1
0.0143

###

Settings: in DMF, 293.15 K
MEASURED_PARAMETER: solubility (mole fraction)
Lab note: jot down the number only; don't add units.

So what's the measured solubility (mole fraction) for this one? COc1cc(Cl)nc(N)n1
0.0712

###

Conditions: in DMF, 273.15 K
MEASURED_PARAMETER: solubility (mole fraction)

So what's the measured solubility (mole fraction) for this one? COc1cc(Cl)nc(N)n1
0.0496

###

Settings: in ethyl acetate, 318.15 K
MEASURED_PARAMETER: solubility (mole fraction)
Lab note: jot down the number only; don't add units.

So what's the measured solubility (mole fraction) for this one? COc1cc(Cl)nc(N)n1
0.033

###

Details: in n-propanol, 288.15 K
MEASURED_PARAMETER: solubility (mole fraction)
Lab note: jot down the number only; don't add units.

So what's the measured solubility (mole fraction) for this one? COc1cc(Cl)nc(N)n1
0.00256

###

Settings: in methanol, 293.15 K
MEASURED_PARAMETER: solubility (mole fraction)
Lab note: jot down the number only; don't add units.

So what's the measured solubility (mole fraction) for this one? COc1cc(Cl)nc(N)n1
0.0031

###

Settings: in DMF, 313.15 K
MEASURED_PARAMETER: solubility (mole fraction)
Lab note: jot down the number only; don't add units.

So what's the measured solubility (mole fraction) for this one? COc1cc(Cl)nc(N)n1
0.101

###

Conditions: in isopropanol, 288.15 K
MEASURED_PARAMETER: solubility (mole fraction)

So what's the measured solubility (mole fraction) for this one? COc1cc(Cl)nc(N)n1
0.00241

###

Conditions: in ethylbenzene, 288.15 K
MEASURED_PARAMETER: solubility (mole fraction)
Lab note: jot down the number only; don't add units.

So what's the measured solubility (mole fraction) for this one? COc1cc(Cl)nc(N)n1
0.00115

###

Settings: in chloroform, 323.15 K
MEASURED_PARAMETER: solubility (mole fraction)

So what's the measured solubility (mole fraction) for this one? COc1cc(Cl)nc(N)n1
0.0197

###

Details: in ethanol, 273.15 K
MEASURED_PARAMETER: solubility (mole fraction)
Lab note: jot down the number only; don't add units.

So what's the measured solubility (mole fraction) for this one? COc1cc(Cl)nc(N)n1
0.00128

###

Conditions: in methanol, 323.15 K
MEASURED_PARAMETER: solubility (mole fraction)

So what's the measured solubility (mole fraction) for this one? COc1cc(Cl)nc(N)n1
0.00962

###

Conditions: in DMF, 298.15 K
MEASURED_PARAMETER: solubility (mole fraction)

So what's the measured solubility (mole fraction) for this one? COc1cc(Cl)nc(N)n1
0.0775

###

Conditions: in ethylbenzene, 308.15 K
MEASURED_PARAMETER: solubility (mole fraction)
Lab note: jot down the number only; don't add units.

So what's the measured solubility (mole fraction) for this one? COc1cc(Cl)nc(N)n1
0.00299

###

Conditions: in toluene, 313.15 K
MEASURED_PARAMETER: solubility (mole fraction)
Lab note: jot down the number only; don't add units.

So what's the measured solubility (mole fraction) for this one? COc1cc(Cl)nc(N)n1
0.00463

###

Conditions: in n-propanol, 303.15 K
MEASURED_PARAMETER: solubility (mole fraction)
Lab note: jot down the number only; don't add units.

So what's the measured solubility (mole fraction) for this one? COc1cc(Cl)nc(N)n1
0.00502

###

Details: in ethyl acetate, 293.15 K
MEASURED_PARAMETER: solubility (mole fraction)

So what's the measured solubility (mole fraction) for this one? COc1cc(Cl)nc(N)n1
0.0129

###

Conditions: in ethylbenzene, 323.15 K
MEASURED_PARAMETER: solubility (mole fraction)
Lab note: jot down the number only; don't add units.

So what's the measured solubility (mole fraction) for this one? COc1cc(Cl)nc(N)n1
0.00567

###

Settings: in acetone, 303.15 K
MEASURED_PARAMETER: solubility (mole fraction)
Lab note: jot down the number only; don't add units.

So what's the measured solubility (mole fraction) for this one? COc1cc(Cl)nc(N)n1
0.0255

###

Conditions: in acetonitrile, 313.15 K
MEASURED_PARAMETER: solubility (mole fraction)
Lab note: jot down the number only; don't add units.

So what's the measured solubility (mole fraction) for this one? COc1cc(Cl)nc(N)n1
0.00773

###

Details: in methanol, 318.15 K
MEASURED_PARAMETER: solubility (mole fraction)
Lab note: jot down the number only; don't add units.

So what's the measured solubility (mole fraction) for this one? COc1cc(Cl)nc(N)n1
0.00809

###

Details: in methanol, 283.15 K
MEASURED_PARAMETER: solubility (mole fraction)

So what's the measured solubility (mole fraction) for this one? COc1cc(Cl)nc(N)n1
0.00199

###

Conditions: in isopropanol, 273.15 K
MEASURED_PARAMETER: solubility (mole fraction)
Lab note: jot down the number only; don't add units.

So what's the measured solubility (mole fraction) for this one? COc1cc(Cl)nc(N)n1
0.00113

###

Settings: in acetone, 318.15 K
MEASURED_PARAMETER: solubility (mole fraction)
Lab note: jot down the number only; don't add units.

So what's the measured solubility (mole fraction) for this one? COc1cc(Cl)nc(N)n1
0.0422

###

Details: in n-propanol, 308.15 K
MEASURED_PARAMETER: solubility (mole fraction)
Lab note: jot down the number only; don't add units.

So what's the measured solubility (mole fraction) for this one? COc1cc(Cl)nc(N)n1
0.00618

###

Details: in ethylbenzene, 278.15 K
MEASURED_PARAMETER: solubility (mole fraction)
Lab note: jot down the number only; don't add units.

So what's the measured solubility (mole fraction) for this one? COc1cc(Cl)nc(N)n1
0.000689

meta.source: BigSolDB 2.1
